Reported inhibition at 20 µM values for the following molecules.
- Tested on: MOVAS cells
- MEASUREMENT NOTES: MOVAS cell calcification assay (Alizarin red)
- Assay type: cell-based, mouse
- CONDITION: Mus musculus, MOVAS; at 20 uM; read-out: Calcification assay Max calcification inhibition (%) at the indicated dose of compound
# value in %; strip the unit string

MOLECULE | OBSERVED MEASUREMENT
O=C(Nc1cnn(CC2CCCO2)c1)c1cccc(F)c1 (stereo not shown) | 30
CCn1cnc2c(Nc3cnn(CC4CCCCC4)c3)ncnc21 | 80
CCn1cnc2c(Nc3cnn(CCOC)c3)ncnc21 | 37

Please find the next molecule below.
Req: Could you tell me which inhibition at 20 µM is on file for c1cc(Nc2cnn(CC3CCCO3)c2)ncn1 (stereo not shown) ?
Resp: 23

====

- System: MOVAS cells
- MEASUREMENT NOTES: Cytotoxicity assay, LDH release
- Assay type: cell-based, mouse
- CONDITION: at 20 uM
Property: Cytotoxicity assay LDH release (% of cytotoxicity); scope: individual compounds
Numbers only; they are read as % at.

Look over these answered cases.
COMPOUND | OBSERVED MEASUREMENT
c1cc(Nc2cnn(CC3CCCO3)c2)ncn1 (stereo not shown) [Compound 20] | 16
CCn1cnc2c(Nc3cnn(CCOC)c3)ncnc21 [Compound 47] | 25

Req: Dear colleague, I am looking for the recorded Cytotoxicity assay LDH release (% of cytotoxicity) of the following compound: O=C(Nc1cnn(CC2CCCO2)c1)c1cccc(F)c1 (stereo not shown) [Compound 39]
Resp: 8

Req: Cool, now CCn1cnc2c(Nc3cnn(CC4CCCCC4)c3)ncnc21 [Compound 30]
Resp: 5

====

- MEASURED TARGET: recombinant human CSE (Homo sapiens, UniProt P32929)
- Sequence (P32929 whole entry): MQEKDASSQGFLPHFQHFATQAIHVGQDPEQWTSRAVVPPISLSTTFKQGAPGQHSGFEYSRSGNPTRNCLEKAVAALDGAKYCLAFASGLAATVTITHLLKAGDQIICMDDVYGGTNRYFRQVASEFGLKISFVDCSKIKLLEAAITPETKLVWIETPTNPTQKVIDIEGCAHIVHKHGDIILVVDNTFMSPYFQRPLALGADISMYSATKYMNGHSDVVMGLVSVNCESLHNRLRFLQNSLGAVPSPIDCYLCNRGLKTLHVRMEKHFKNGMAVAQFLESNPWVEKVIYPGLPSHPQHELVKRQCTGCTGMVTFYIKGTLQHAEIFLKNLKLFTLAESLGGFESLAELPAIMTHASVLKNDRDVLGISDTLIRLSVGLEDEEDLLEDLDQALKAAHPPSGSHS
- MEASUREMENT NOTES: CSE activity (AzMC probe assay), H2S production by recombinant human CSE
- CONDITION: EC50 calculated by the four-parameter logistic model
METRIC: pEC50
# log scale: pEC50 equals minus log10 of the concentration in mol/L

Req: Sample CCn1cnc2c(Nc3cnn(Cc4ccccn4)c3)ncnc21 — what was its pEC50?
Resp: 7.50

Req: # repeat for O=C(Nc1cnn(CC2CCCO2)c1)c1ccc2ccccc2c1 (stereo not drawn)
Resp: 8.36

====

Item-by-item account of pEC50
- MEASURED TARGET: recombinant human CSE (Homo sapiens)
- MEASUREMENT NOTES: CSE activity (AzMC probe assay), H2S production by recombinant human CSE
- CONDITION: EC50 calculated by the four-parameter logistic model
Remember, pEC50 is on a log scale: it is -log10 of the molar concentration.

Consider the reported pEC50 for these compounds:
COMPOUND | MEASURED TARGET | pEC50
c1cnc(Nc2cnn(CC3CCCCC3)c2)nc1 | recombinant human CSE (Homo sapiens) | 7.17
O=C(Nc1cnn(CC2CCCO2)c1)c1ccccc1 (centres unmarked) | recombinant human CSE (Homo sapiens) | 7.80
O=C(Nc1cnn(CC2CCCO2)c1)c1cccc2[nH]ccc12 (centres unmarked) | recombinant human CSE (Homo sapiens) | 7.54
O=C(Nc1cnn(CC2CCCO2)c1)c1cccc(F)c1 (centres unmarked) | recombinant human CSE (Homo sapiens) | 6.86

Consider the additional compound presented here.
Req: For the compound shown here, O=[N+]([O-])c1ccc(Nc2cnn(CC3CCCO3)c2)cc1 (centres unmarked) , give the reported pEC50.
Resp: 7.37
